tested_on: human GLP-1 receptor (human, UniProt P43220 24-463)
assay_details: cell-based or functional assay
result_type: GLP-1 activity (EC50, pM); CRE luciferase reporter
Express your answer in pM, writing the number without its unit.

Below are worked cases with known answers.
Compound 51 (ligand, Moiety B (HOOC-(CH2)20-CO-gGlu-2XADO-EDA-CO-CH2) on 51C and 222C of fusion polypeptide) HGEGTFTSDVSSYLEEQAAKEFIAWLVRGGGGGGGSGGGGSGGGGSGGGGCHPIPDSSPLLQFGGQVRQRYLYTDDAQQTEAHLEIREDGTVGGAADQSPESLLQLKALKPGVIQILGVKTSRFLCQRPDGALYGSLHFDPEACSFRELLLEDGYNVYQSEAHGLPLHLPGQKSPHRDPAPRGPARFLPLPGLPPALPEPPGILAPQPPDVGSSDPLSLVGCSQGRSPSYES : 30.7
Compound 52 (ligand, Moiety B (HOOC-(CH2)20-CO-gGlu-2XADO-EDA-CO-CH2) on 51C and 225C of fusion polypeptide) HGEGTFTSDVSSYLEEQAAKEFIAWLVRGGGGGGGSGGGGSGGGGSGGGGCHPIPDSSPLLQFGGQVRQRYLYTDDAQQTEAHLEIREDGTVGGAADQSPESLLQLKALKPGVIQILGVKTSRFLCQRPDGALYGSLHFDPEACSFRELLLEDGYNVYQSEAHGLPLHLPGQKSPHRDPAPRGPARFLPLPGLPPALPEPPGILAPQPPDVGSSDPLSLVGGSQCRSPSYES : 30.2

Now consider a different binder.
What value of measured GLP-1 activity (EC50, pM); CRE luciferase reporter is listed for Compound 10 (ligand, Moiety A (HOOC-(CH2)16-CO-gGlu-2XADO) on 222K of fusion polypeptide) HGEGTFTSDVSSYLEEQAAREFIAWLVRGGGGGGGSGGGGSGGGGSGGGGSHPIPDSSPLLQFGGQVRQRYLYTDDAQQTEAHLEIREDGTVGGAADQSPESLLQLRALRPGVIQILGVRTSRFLCQRPDGALYGSLHFDPEACSFRELLLEDGYNVYQSEAHGLPLHLPGQRSPHRDPAPRGPARFLPLPGLPPALPEPPGILAPQPPDVGSSDPLSLVGKSQGRSPSYES ?
17.6

FYI, the data here is from patent US20220016254A1.
